molecular target: T1, TCE-33; assay: competition ELISA, peptide titrated vs TCE binding to captured CD3
T1 construct: anti-CD3 scFv with P41S; E227D set of mutations; anti-TROP2 Fab F108A
Ends that are not written are not given here.
value-kind: IC50

Data request: Consider the binder YLCGPDTDETLACY (cysteine pairing not given here; also: biotinylated, site not given here) [Peptide-13] and give its measured IC50.
Data returned: > 100 µM
